- Test system: Mycolicibacterium smegmatis
- TEST_DETAILS: Antimycobacterial activity against Mycobacterium smegmatis grown in nitrogen -limited broth medium assessed as growth inhibition in mid-logarithmic phase by GFP-based fluorescence assay
- Type: functional, organism-based
- TEST_CONDITIONS: Mycolicibacterium smegmatis
OBSERVATION_TYPE: IC50
Express the reported value numerically, then name its unit.

# count of solved cases: 3
Kindly state the measured IC50 obtained for Clc1ccccc1C(c1ccccc1)(c1ccccc1)n1ccnc1 with Mycolicibacterium smegmatis.
12.2 µM

Recall the recorded IC50 for C[C@H]1c2cccc(O)c2C(=O)C2=C(O)[C@]3(O)C(=O)C(C(N)=O)=C(O)[C@@H](N(C)C)[C@@H]3[C@@H](O)[C@@H]21 with Mycolicibacterium smegmatis and state it.
1.95 µM

Entry Cc1c(C)c2c(c(C)c1O)CCC(C)(CN1CCN(c3cc(N4CCCC4)nc(N4CCCC4)n3)CC1)O2 (single isomer, unassigned) , system Mycolicibacterium smegmatis: what IC50 was measured?
34.2 µM

New cases:
What is its IC50 for Mycolicibacterium smegmatis? Entry: O=C1c2c(O)ccc(O)c2C(=O)c2c(NCCNCCO)ccc(NCCNCCO)c21
5.02 µM

Enter reported IC50 observed with Mycolicibacterium smegmatis for C[Se]C[C@H](N)C(=O)O
0.6 µM

Short answer please: IC50, Mycolicibacterium smegmatis, entry c1cnc2c(c1)ccc1cccnc12
5.76 µM

Identify the measured IC50 of N=C(N)c1ccc(OCCCCCOc2ccc(C(=N)N)cc2)cc1 for Mycolicibacterium smegmatis.
9.1 µM

Recorded IC50 for CN[C@H](CC(C)C)C(=O)N[C@H]1C(=O)N[C@@H](CC(N)=O)C(=O)N[C@H]2C(=O)N[C@H]3C(=O)N[C@H](C(=O)N[C@H](C(=O)O)c4cc(O)cc(O)c4-c4cc3ccc4O)[C@H](O)c3ccc(c(Cl)c3)Oc3cc2cc(c3O[C@@H]2O[C@H](CO)[C@@H](O)[C@H](O)[C@H]2O[C@H]2C[C@](C)(N)[C@H](O)[C@H](C)O2)Oc2ccc(cc2Cl)[C@H]1O with Mycolicibacterium smegmatis, please?
11.1 µM
